The reader will find reported IC50 values listed item by item below.
# Target entity: LRRK2 WT enzyme (Homo sapiens, UniProt Q5S007)
# Construct: purchased Thermo Fisher Scientific PR8604B
# Sequence (Q5S007 970-2527 limits assumed): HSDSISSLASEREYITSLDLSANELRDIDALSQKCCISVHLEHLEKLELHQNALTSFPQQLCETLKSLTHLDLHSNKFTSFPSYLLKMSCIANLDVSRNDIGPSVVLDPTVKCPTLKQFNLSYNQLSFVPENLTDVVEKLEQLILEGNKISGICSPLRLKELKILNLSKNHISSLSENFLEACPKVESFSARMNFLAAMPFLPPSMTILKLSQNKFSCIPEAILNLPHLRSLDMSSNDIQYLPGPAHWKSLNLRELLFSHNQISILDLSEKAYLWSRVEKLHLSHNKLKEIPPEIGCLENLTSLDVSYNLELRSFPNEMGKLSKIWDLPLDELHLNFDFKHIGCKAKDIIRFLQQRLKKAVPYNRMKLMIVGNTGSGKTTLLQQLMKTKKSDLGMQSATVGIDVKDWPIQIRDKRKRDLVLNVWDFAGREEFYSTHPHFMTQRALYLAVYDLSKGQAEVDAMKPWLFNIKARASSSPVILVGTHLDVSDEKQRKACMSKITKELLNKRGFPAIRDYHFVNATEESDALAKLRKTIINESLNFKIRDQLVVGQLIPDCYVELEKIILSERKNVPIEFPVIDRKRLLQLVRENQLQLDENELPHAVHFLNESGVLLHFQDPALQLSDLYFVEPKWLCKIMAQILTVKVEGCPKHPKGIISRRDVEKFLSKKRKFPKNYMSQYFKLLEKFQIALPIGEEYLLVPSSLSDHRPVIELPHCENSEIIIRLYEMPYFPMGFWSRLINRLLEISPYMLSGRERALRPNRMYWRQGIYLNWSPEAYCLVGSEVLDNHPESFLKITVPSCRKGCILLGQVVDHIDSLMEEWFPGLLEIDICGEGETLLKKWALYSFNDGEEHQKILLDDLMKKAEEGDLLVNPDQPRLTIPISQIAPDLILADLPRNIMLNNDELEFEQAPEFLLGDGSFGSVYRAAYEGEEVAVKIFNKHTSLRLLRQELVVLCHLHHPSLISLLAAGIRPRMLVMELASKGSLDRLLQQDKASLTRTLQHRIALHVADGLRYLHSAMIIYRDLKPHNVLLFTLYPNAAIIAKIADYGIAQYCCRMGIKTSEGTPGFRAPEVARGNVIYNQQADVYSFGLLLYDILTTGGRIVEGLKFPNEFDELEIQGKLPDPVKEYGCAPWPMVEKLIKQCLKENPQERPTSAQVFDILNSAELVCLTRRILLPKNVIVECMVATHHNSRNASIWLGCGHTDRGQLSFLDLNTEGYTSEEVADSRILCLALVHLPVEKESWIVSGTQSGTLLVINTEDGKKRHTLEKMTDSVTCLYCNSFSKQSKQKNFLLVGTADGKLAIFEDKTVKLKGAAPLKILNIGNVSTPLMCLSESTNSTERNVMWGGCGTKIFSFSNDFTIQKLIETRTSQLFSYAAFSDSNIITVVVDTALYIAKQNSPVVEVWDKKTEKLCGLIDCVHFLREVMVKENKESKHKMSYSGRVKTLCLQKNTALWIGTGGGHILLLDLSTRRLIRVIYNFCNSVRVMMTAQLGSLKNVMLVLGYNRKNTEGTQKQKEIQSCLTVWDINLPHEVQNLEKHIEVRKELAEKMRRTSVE
# Assay explanation: LRRK2 wild type kinase inhibition assay (ADP-Glo)
# Format: biochemical
# Assay setup: Table 1; read-out: IC50 (nM) LRRK2 wt

>  <Smiles representation>
CNc1c(-c2ccn(C)n2)cnc2[nH]cc(Cl)c12

>  <IC50 [nM]>
8.4

$$$$
>  <Smiles representation>
CNc1c(-c2cnn(C(C)(C)C#N)c2)cnc2[nH]ccc12

>  <IC50 [nM]>
544

$$$$
>  <Smiles representation>
CNc1c(-c2cnn(C3CCOCC3)c2)cnc2[nH]cc(Cl)c12

>  <IC50 [nM]>
10

$$$$
>  <Smiles representation>
CNc1c(C(F)(F)F)cnc2[nH]cc(-c3cnn(C(C)(C)C#N)c3)c12

>  <IC50 [nM]>
38

$$$$
>  <Smiles representation>
CNc1c(-c2cn(C3CCOCC3)nc2C2CC2)cnc2[nH]cc(Cl)c12

>  <IC50 [nM]>
3600

$$$$
>  <Smiles representation>
CNc1c(-c2nn(C)c3ccc(C#N)cc23)cnc2[nH]cc(Cl)c12

>  <IC50 [nM]>
95.2

$$$$
>  <Smiles representation>
CCc1cc(-c2cnc3[nH]cc(Cl)c3c2NC(C)C)nn1C

>  <IC50 [nM]>
259

$$$$

---

# Target entity: LRRK2 WT enzyme (Homo sapiens, UniProt Q5S007)
# Construct: purchased Thermo Fisher Scientific PR8604B
# Assay explanation: LRRK2 wild type kinase inhibition assay (ADP-Glo)
# Format: biochemical
# Assay setup: Table 2, class symbols; read-out: Enzyme activity against LRRK2 WT (IC50)
pIC50: −log10 of the molar value.
Items are presented alongside their recorded pIC50.

>  <Smiles representation>
F[C@H]1CN(C2COC2)CC[C@@H]1n1cc(-c2cnc3[nH]ccc3c2NC2CCCC2)cn1

>  <Target entity>
LRRK2 WT enzyme (Homo sapiens, UniProt Q5S007)

>  <pIC50>
7.00 to 8.00

$$$$
>  <Smiles representation>
COCCNc1c(-c2cnn([C@H]3CCN(C(C)=O)C[C@@H]3F)c2)cnc2[nH]cc(Cl)c12

>  <Target entity>
LRRK2 WT enzyme (Homo sapiens, UniProt Q5S007)

>  <pIC50>
7.00 to 8.00

$$$$
>  <Smiles representation>
CNc1c(-c2ccc(C(=O)N3CCOCC3)cc2)cnc2[nH]cc(Cl)c12

>  <Target entity>
LRRK2 WT enzyme (Homo sapiens, UniProt Q5S007)

>  <pIC50>
> 8.00

$$$$
>  <Smiles representation>
O=C(c1ccc(-c2cnc3[nH]cc(Cl)c3c2NC2CC2)cc1)N1CCC(N2CCOCC2)CC1

>  <Target entity>
LRRK2 WT enzyme (Homo sapiens, UniProt Q5S007)

>  <pIC50>
7.00 to 8.00

$$$$

---

# Target entity: LRRK2(G2019S) (Homo sapiens, UniProt Q5S007, G2019S)
# Sequence (Q5S007 970-2527 G2019S limits assumed): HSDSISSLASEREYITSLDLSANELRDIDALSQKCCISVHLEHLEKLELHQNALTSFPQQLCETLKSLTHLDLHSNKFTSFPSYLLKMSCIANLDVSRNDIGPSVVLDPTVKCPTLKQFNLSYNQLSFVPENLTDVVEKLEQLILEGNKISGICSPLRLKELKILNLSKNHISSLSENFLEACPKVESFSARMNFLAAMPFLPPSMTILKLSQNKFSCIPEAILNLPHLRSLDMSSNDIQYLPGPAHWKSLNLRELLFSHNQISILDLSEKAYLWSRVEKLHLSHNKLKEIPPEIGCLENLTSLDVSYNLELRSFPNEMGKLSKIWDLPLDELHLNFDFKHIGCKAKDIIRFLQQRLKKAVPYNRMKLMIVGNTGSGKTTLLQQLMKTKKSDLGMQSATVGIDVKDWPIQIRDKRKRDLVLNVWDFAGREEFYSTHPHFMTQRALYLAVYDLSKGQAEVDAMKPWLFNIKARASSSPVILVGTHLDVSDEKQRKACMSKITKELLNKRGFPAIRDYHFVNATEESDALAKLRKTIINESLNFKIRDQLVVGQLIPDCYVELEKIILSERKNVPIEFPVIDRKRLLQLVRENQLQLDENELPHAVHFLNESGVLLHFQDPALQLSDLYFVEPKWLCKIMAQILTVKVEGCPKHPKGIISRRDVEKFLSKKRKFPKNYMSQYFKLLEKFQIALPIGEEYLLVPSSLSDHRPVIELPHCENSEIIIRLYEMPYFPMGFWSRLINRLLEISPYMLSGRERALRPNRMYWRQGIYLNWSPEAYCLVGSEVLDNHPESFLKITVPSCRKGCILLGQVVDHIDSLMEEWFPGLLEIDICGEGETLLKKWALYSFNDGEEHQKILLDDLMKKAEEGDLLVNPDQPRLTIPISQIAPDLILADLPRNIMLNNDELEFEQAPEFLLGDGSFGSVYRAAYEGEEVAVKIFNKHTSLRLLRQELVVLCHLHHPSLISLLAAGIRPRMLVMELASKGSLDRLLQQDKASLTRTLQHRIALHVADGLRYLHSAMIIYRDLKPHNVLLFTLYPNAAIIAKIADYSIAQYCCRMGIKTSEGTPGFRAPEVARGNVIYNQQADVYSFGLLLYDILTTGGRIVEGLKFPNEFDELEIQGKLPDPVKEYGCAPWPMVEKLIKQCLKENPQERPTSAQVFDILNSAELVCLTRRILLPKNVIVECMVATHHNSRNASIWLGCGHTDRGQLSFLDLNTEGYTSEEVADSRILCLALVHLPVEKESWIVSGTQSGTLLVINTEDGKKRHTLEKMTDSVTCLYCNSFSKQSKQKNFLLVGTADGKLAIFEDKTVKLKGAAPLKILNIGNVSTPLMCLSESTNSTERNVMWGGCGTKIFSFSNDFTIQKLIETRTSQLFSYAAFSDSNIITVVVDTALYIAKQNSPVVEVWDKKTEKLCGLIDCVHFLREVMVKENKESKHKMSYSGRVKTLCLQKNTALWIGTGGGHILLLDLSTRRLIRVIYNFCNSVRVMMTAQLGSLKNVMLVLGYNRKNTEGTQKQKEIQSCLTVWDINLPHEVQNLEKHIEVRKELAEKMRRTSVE
# Assay explanation: LRRK2 G2019S kinase inhibition assay (ADP-Glo)
# Type: biochemical
# Set-up: purchased SignalChem L10-12GG
# Assay setup: Table 1; read-out: IC50 (nM) LRRK2 G2019S
Binary label based on IC50 with cut-off 80 nM: below gives 1 (yes), not below gives 0 (no).

>  <Smiles representation>
CCc1cc(-c2cnc3[nH]cc(Cl)c3c2NC(C)C)nn1C

>  <Class label>
0 (no)

$$$$
>  <Smiles representation>
CNc1c(C(F)(F)F)cnc2[nH]cc(-c3cnn(C4CCN(C)CC4)c3)c12

>  <Class label>
1 (yes)

$$$$
>  <Smiles representation>
CCc1cc(-c2cnc3[nH]cc(Cl)c3c2NC)nn1C

>  <Class label>
0 (no)

$$$$
>  <Smiles representation>
CNc1c(-c2cnn(C3CCN(C)CC3)c2)cnc2[nH]cc(Cl)c12

>  <Class label>
1 (yes)

$$$$
>  <Smiles representation>
CNc1c(-c2ccn(C)n2)cnc2[nH]cc(Cl)c12

>  <Class label>
1 (yes)

$$$$
>  <Smiles representation>
CNc1c(-c2nn(C)c3ccc(OC)cc23)cnc2[nH]cc(Cl)c12

>  <Class label>
0 (no)

$$$$
>  <Smiles representation>
CNc1c(-c2cn(C3CCOCC3)nc2C2CC2)cnc2[nH]cc(Cl)c12

>  <Class label>
0 (no)

$$$$
